procedure_text: viability loss with induced miR-34 in A549 – imaging, A549 dox-inducible miR-34, nuclei and caspase counts, primary screen (AID 1347080)
condition_parameters: A549 miR-34 inducible, Hoechst nuclei count, 48 h; measured here: relative caspase fold change +Dox/-Dox
Documented fold change across a set of molecules
value_kind: fold change

[[record]]
molecule = "C/C(=N\\NC(=O)[C@@H]1C(=O)NC[C@H]1c1ccccc1)c1cccc(Br)c1"
value_reported = 1.69

[[record]]
molecule = "Cc1cc(C(C)Nc2ccccc2)c2nc(N3CCOCC3)cc(=O)n2c1 (centres undefined)"
value_reported = 1.05

[[record]]
molecule = "O=C1OC(O)C(c2cc3ccccc3s2)=C1Br (centres undefined)"
value_reported = 0.534

[[record]]
molecule = "CC[C@H](CO)Nc1nc(NCc2ccc(-c3ccccn3)cc2)c2ncn(C(C)C)c2n1"
value_reported = 0.699


* * *

procedure_text: RCMB18 cell growth, single agent and combined, cisplatin and BGB IC40 combos (AID 1671462);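 also: cells exposed to compound for four days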
condition_parameters: RCMB18 medulloblastoma cells, measured here: combination with cisplatin, at 0.5 µM, stronger effect = higher value
value_kind: inhibition (%)

[[record]]
compound = "Nc1nc(OCc2cc(Br)cs2)c2[nH]cnc2n1"
display_unit = "%"
value_reported = -25.9

[[record]]
compound = "O=C(CCCCCCNC(=O)c1cnc(N(c2ccccc2)c2ccccc2Cl)nc1)NO"
display_unit = "%"
value_reported = 5.58

[[record]]
compound = "C[C@]1(c2nc3c(C(N)=O)cccc3[nH]2)CCCN1"
display_unit = "%"
value_reported = -15.1

[[record]]
compound = "NC(=O)c1nc(F)c[nH]c1=O"
display_unit = "%"
value_reported = -26.7

[[record]]
compound = "CC(=O)Nc1ccc(C(=O)Nc2ccccc2N)cc1"
display_unit = "%"
value_reported = 20.8

[[record]]
compound = "CN(C)c1ccc(C(=O)NCCCCCCC(=O)NO)cc1"
display_unit = "%"
value_reported = 62.9

[[record]]
compound = "CS(=O)(=O)c1ccc(-c2nnc(/C=C/c3nnc(-c4ccc(C#N)cc4)o3)n2-c2ccccc2Cl)nc1"
display_unit = "%"
value_reported = 19.3

[[record]]
compound = "C[C@]12CCCN1CC1=NNC(=O)c3cc(F)cc4[nH]c2c1c34"
display_unit = "%"
value_reported = -6.38

[[record]]
compound = "CN[C@@H]1CN(c2ccc3c(=O)c(C(=O)O)cn(-c4nccs4)c3n2)C[C@H]1OC"
display_unit = "%"
value_reported = 32.1

[[record]]
compound = "Nc1nc2n[nH]nc2c(=O)[nH]1"
display_unit = "%"
value_reported = 3.47

[[record]]
compound = "COc1ccc(C(=O)CC2(O)C(=O)Nc3c(Cl)ccc(Cl)c32)cc1 (centres undefined)"
display_unit = "%"
value_reported = 6.7

[[record]]
compound = "O=C(O)CO.[NH2-].[NH2-].[Pt+2]"
display_unit = "%"
value_reported = 6.48

[[record]]
compound = "N=C1CCCN1Cc1[nH]c(=O)[nH]c(=O)c1Cl"
display_unit = "%"
value_reported = 1.1

[[record]]
compound = "O=c1[nH]cnc2ccccc12"
display_unit = "%"
value_reported = -25.5


* * *

Tested on: Hepatitis C virus NS3 helicase
procedure_text: blockers of NS3h binding to ssDNA – biochemical, fluorescence polarization, LOPAC1280 library, primary screen (AID 687035)
condition_parameters: Purified HCV NS3 helicase, Cy5-dT15 ssDNA binding fluorescence polarization; stronger effect = higher value; concentration not given here
value_kind: inhibition (%)

[[record]]
compound = "CCCCCC(O)CCCC(=O)O (stereo not drawn)"
display_unit = "%"
value_reported = -4

[[record]]
compound = "CNCCC(Oc1ccccc1C)c1ccccc1 (stereo not drawn)"
display_unit = "%"
value_reported = -5

[[record]]
compound = "O=c1onc2n1-c1cc(Br)ccc1OC2"
display_unit = "%"
value_reported = -4

[[record]]
compound = "O=c1c2ccccc2nc2n1CCc1c-2[nH]c2ccccc12"
display_unit = "%"
value_reported = 2

[[record]]
compound = "O=C(Nc1nc2ccccc2n1CCN1CCOCC1)c1cccc([N+](=O)[O-])c1"
display_unit = "%"
value_reported = -2

[[record]]
compound = "O=S(=O)(c1cccc2c(I)cccc12)N1CCCNCC1"
display_unit = "%"
value_reported = -1

[[record]]
compound = "O=C1NC(=O)/C(=C/c2ccc3nccnc3c2)S1"
display_unit = "%"
value_reported = 0

[[record]]
compound = "C[C@H](Cc1ccc(O)c(O)c1)[C@@H](C)Cc1ccc(O)c(O)c1"
display_unit = "%"
value_reported = -2

[[record]]
compound = "COc1cc(/C=C(\\C#N)C(=O)Nc2nnc(C(F)(F)F)s2)ccc1OCc1ccc(C(F)(F)F)cc1C(F)(F)F"
display_unit = "%"
value_reported = -5

[[record]]
compound = "CC1(C)C(=O)N(CCN2CCC(C(=O)c3ccc(F)cc3)CC2)c2ccccc21"
display_unit = "%"
value_reported = -1

[[record]]
compound = "Cc1nn(-c2ccccc2)c(C)c1C=NN1CCN(Cc2ccccc2)CC1"
display_unit = "%"
value_reported = -4

[[record]]
compound = "Nc1ccc2c3c(cccc13)C(=O)NC2=O"
display_unit = "%"
value_reported = -1

[[record]]
compound = "C[C@]12C=CC(=O)C=C1CC[C@@H]1C2=CC[C@]2(C)[C@@H](C(=O)CN3CCN(c4cc(N5CCCC5)nc(N5CCCC5)n4)CC3)CC[C@@H]12"
display_unit = "%"
value_reported = -5

[[record]]
compound = "NC1CONC1=O (stereo not drawn)"
display_unit = "%"
value_reported = -2

[[record]]
compound = "Cc1cccc(-c2[nH]c(C(C)(C)C)nc2-c2ccc3nccnc3c2)n1"
display_unit = "%"
value_reported = -3

[[record]]
compound = "COc1ccc(-c2ccc(N)[n+](CCCC(=O)O)n2)cc1"
display_unit = "%"
value_reported = -3

[[record]]
compound = "COc1cc(CNC(=O)CCCCCCC(C)C)ccc1O"
display_unit = "%"
value_reported = -5

[[record]]
compound = "N[C@@H](Cn1ccc(=O)c(O)c1)C(=O)O"
display_unit = "%"
value_reported = -3

[[record]]
compound = "O=C1NC(=O)/C(=C/c2ccc(-c3ccc(F)cc3O)o2)S1"
display_unit = "%"
value_reported = 0

[[record]]
compound = "Nc1nc(N)c(N=O)c(OCC2CCCCC2)n1"
display_unit = "%"
value_reported = -2

[[record]]
compound = "CCC(CO)Nc1nc(NCc2ccccc2)c2ncn(C(C)C)c2n1 (stereo not drawn)"
display_unit = "%"
value_reported = 0

[[record]]
compound = "CCCCCCCCCCCCCCCCCCOC[C@H](COP(=O)([O-])OCC[N+](C)(C)C)OC"
display_unit = "%"
value_reported = 0

[[record]]
compound = "O=C1NC(O)=NC1(c1ccccc1)c1ccccc1"
display_unit = "%"
value_reported = -2

